# SYSTEM: barnase (Bacillus amyloliquefaciens, UniProt P00648, H149A)
# Sequence (P00648 48-157 H149A): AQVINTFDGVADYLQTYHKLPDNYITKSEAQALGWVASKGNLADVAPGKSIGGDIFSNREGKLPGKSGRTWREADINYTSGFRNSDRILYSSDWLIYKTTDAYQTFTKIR
# EXPERIMENTAL CONTEXT: single co-solute titration up to 1 M; 5 mM acetate pH 5.8
MEASURED PROPERTY: mL for amide protons (1HN), mean ± standard deviation over residues

Past entries and their recorded results:
- MOLECULE: "CC1=N[C@H](C(=O)O)CCN1"
  SYSTEM: "barnase (Bacillus amyloliquefaciens, UniProt P00648, H149A)"
  VALUE OBSERVED: "+16.5 ± 21.3 ppb/M"
- MOLECULE: "C[N+](C)(C)CC(=O)O"
  SYSTEM: "barnase (Bacillus amyloliquefaciens, UniProt P00648, H149A)"
  VALUE OBSERVED: "+4.3 ± 15.9 ppb/M"

Here's the next entry for you.
Recorded mL for amide protons (1HN), mean ± standard deviation over residues for C[N+](C)(C)[O-] [TMAO, trimethylamine N-oxide] , please?
+9.7 ± 16.9 ppb/M
